Where do the numbers come from? From the supplement of paper PMC7796163.

- ASSAYED_TARGET: CYP2C9 (UniProt P11712)
- Sequence (P11712 whole entry): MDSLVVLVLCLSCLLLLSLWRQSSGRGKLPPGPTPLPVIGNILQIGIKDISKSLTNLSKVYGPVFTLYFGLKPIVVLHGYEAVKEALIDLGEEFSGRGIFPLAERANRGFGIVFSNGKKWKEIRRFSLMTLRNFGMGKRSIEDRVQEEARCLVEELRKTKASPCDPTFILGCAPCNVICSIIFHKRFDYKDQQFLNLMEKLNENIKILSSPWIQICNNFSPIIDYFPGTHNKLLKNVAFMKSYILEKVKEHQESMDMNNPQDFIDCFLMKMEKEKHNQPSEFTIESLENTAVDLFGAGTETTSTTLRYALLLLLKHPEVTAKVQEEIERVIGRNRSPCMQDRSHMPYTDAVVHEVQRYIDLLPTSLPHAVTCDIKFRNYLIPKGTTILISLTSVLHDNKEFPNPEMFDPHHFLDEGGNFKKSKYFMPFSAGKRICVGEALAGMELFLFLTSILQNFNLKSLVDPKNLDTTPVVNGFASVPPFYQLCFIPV
- ASSAY_REMARKS: CYP enzyme activity (probe substrate metabolite formation) fold change vs solvent control; higher = stronger induction of CYP activity
- CONDITION_PARAMETERS: 10 µM; treatment time 12 h; HepaRG
Entries and their CYP enzyme activity
Respond numerically, and do not add a unit to the figure.

Reference set (4 entries):
>  <COMPOUND>
c1ccc2c(c1)cc1ccc3cccc4c5ccccc5c2c1c34 [dibenzo[a,l]pyrene]

>  <ASSAYED_TARGET>
CYP2C9 (UniProt P11712)

>  <CYP enzyme activity>
0.395

$$$$
>  <COMPOUND>
c1ccc2cc3c(ccc4ccccc43)cc2c1 [benzo[a]anthracene]

>  <ASSAYED_TARGET>
CYP2C9 (UniProt P11712)

>  <CYP enzyme activity>
0.949

$$$$
>  <COMPOUND>
c1cc2ccc3cccc4ccc(c1)c2c34

>  <ASSAYED_TARGET>
CYP2C9 (UniProt P11712)

>  <CYP enzyme activity>
0.914

$$$$
>  <COMPOUND>
c1ccc2c3c(ccc2c1)-c1cccc2cccc-3c12 [benzo[j]fluoranthene]

>  <ASSAYED_TARGET>
CYP2C9 (UniProt P11712)

>  <CYP enzyme activity>
0.731

$$$$

Now consider the entry below.
The reported CYP enzyme activity of the compound c1ccc2c(c1)cc1ccc3cccc4ccc2c1c34 [benzo[a]pyrene] was 0.67

###

- ASSAYED_TARGET: CYP2D6 (UniProt P10635)
- Sequence (P10635 whole entry): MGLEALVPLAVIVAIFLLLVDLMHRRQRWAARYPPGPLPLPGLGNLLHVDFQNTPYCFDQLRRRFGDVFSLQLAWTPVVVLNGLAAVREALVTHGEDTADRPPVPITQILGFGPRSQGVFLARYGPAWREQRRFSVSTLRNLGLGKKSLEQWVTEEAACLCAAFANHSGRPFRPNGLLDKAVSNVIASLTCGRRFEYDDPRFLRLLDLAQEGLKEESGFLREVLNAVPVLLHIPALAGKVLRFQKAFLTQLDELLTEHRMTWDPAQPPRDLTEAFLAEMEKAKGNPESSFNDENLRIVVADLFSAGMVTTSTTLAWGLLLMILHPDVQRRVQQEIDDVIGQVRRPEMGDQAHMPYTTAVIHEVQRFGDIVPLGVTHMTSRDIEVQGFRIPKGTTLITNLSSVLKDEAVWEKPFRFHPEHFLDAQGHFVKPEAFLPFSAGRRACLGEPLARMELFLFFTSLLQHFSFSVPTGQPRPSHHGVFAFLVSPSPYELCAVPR
- ASSAY_REMARKS: CYP enzyme activity (probe substrate metabolite formation) fold change vs solvent control; higher = stronger induction of CYP activity
- CONDITION_PARAMETERS: 10 µM; treatment time 48 h; HepaRG
ENDPOINT_LABEL: CYP enzyme activity
// keep it numeric: no unit symbol after the value

>  <COMPOUND>
c1ccc2c(c1)-c1cccc3cccc-2c13

>  <ASSAYED_TARGET>
CYP2D6 (UniProt P10635)

>  <ENDPOINT_LABEL>
CYP enzyme activity

>  <QUANTITATIVE_READOUT>
1.06

$$$$
>  <COMPOUND>
c1ccc2cc3c(cc2c1)-c1cccc2cccc-3c12 [benzo[k]fluoranthene]

>  <ASSAYED_TARGET>
CYP2D6 (UniProt P10635)

>  <ENDPOINT_LABEL>
CYP enzyme activity

>  <QUANTITATIVE_READOUT>
1.49

$$$$
>  <COMPOUND>
c1ccc2c(c1)cc1ccc3cccc4ccc2c1c34 [benzo[a]pyrene]

>  <ASSAYED_TARGET>
CYP2D6 (UniProt P10635)

>  <ENDPOINT_LABEL>
CYP enzyme activity

>  <QUANTITATIVE_READOUT>
0.51

$$$$
>  <COMPOUND>
c1ccc2c(c1)ccc1ccccc12

>  <ASSAYED_TARGET>
CYP2D6 (UniProt P10635)

>  <ENDPOINT_LABEL>
CYP enzyme activity

>  <QUANTITATIVE_READOUT>
1.03

$$$$
>  <COMPOUND>
c1ccc2c(c1)ccc1ccc3ccccc3c12 [benzo[c]phenanthrene]

>  <ASSAYED_TARGET>
CYP2D6 (UniProt P10635)

>  <ENDPOINT_LABEL>
CYP enzyme activity

>  <QUANTITATIVE_READOUT>
1.08

$$$$

Query c1ccc2c(c1)-c1cccc3c1c-2cc1ccccc13 [benzo[b]fluoranthene] yields CYP enzyme activity of 0.823

The compound identified as c1ccc2cc3c(ccc4ccccc43)cc2c1 [benzo[a]anthracene] registered its CYP enzyme activity at 0.712

Value of CYP enzyme activity reported for the compound c1ccc2c3c(ccc2c1)-c1cccc2cccc-3c12 [benzo[j]fluoranthene] is 0.838

Summary for this compound, c1ccc2c(c1)cc1ccc3cccc4c5ccccc5c2c1c34 [dibenzo[a,l]pyrene] : CYP enzyme activity is 0.212

# CYP enzyme activity of c1cc2ccc3cccc4ccc(c1)c2c34 = 1.12

###

- ASSAYED_TARGET: CYP3A4 (UniProt P08684)
- Sequence (P08684 whole entry): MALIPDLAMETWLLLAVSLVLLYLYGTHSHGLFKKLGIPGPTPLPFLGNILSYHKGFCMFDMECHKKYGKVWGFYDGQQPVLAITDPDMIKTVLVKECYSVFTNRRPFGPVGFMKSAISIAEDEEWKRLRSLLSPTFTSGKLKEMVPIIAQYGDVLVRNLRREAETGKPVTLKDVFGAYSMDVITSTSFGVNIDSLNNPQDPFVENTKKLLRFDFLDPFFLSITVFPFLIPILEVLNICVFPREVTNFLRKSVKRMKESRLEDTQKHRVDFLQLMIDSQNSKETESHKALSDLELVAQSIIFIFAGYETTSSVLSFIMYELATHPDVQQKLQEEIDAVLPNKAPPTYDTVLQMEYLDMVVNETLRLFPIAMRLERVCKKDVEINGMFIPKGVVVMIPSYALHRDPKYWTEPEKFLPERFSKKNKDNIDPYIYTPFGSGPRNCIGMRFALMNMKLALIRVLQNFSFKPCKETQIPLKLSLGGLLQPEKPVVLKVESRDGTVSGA
- ASSAY_REMARKS: CYP enzyme activity (probe substrate metabolite formation) fold change vs solvent control; higher = stronger induction of CYP activity
- CONDITION_PARAMETERS: 1 µM; treatment time 48 h; HepaRG
Label N if CYP enzyme activity falls below 0.7; label Y in every other case.

>  <COMPOUND>
c1ccc2c(c1)ccc1ccc3ccccc3c12 [benzo[c]phenanthrene]

>  <CLASS_LABEL>
Y

$$$$
>  <COMPOUND>
c1ccc2c(c1)cc1ccc3cccc4ccc2c1c34 [benzo[a]pyrene]

>  <CLASS_LABEL>
Y

$$$$
>  <COMPOUND>
c1ccc2c(c1)-c1cccc3c1c-2cc1ccccc13 [benzo[b]fluoranthene]

>  <CLASS_LABEL>
Y

$$$$
>  <COMPOUND>
c1cc2ccc3cccc4ccc(c1)c2c34

>  <CLASS_LABEL>
Y

$$$$
>  <COMPOUND>
c1ccc2c(c1)-c1cccc3cccc-2c13

>  <CLASS_LABEL>
Y

$$$$

query: Answer whether CYP enzyme activity of c1ccc2c(c1)cc1ccc3cccc4c5ccccc5c2c1c34 [dibenzo[a,l]pyrene] is greater than or equal to 0.7.
result: N

###

The entries below come with measured CYP enzyme activity values attached.
- ASSAYED_TARGET: CYP2D6 (UniProt P10635)
- ASSAY_REMARKS: CYP enzyme activity (probe substrate metabolite formation) fold change vs solvent control; higher = stronger induction of CYP activity
- CONDITION_PARAMETERS: 5 µM; treatment time 12 h; HepaRG
Number, no unit, nothing else.

See these solved cases before continuing.
>  <MOLECULE>
c1ccc2c(c1)-c1cccc3c1c-2cc1ccccc13 [benzo[b]fluoranthene]

>  <CYP enzyme activity>
1.38

$$$$
>  <MOLECULE>
c1ccc2cc3c(cc2c1)-c1cccc2cccc-3c12 [benzo[k]fluoranthene]

>  <CYP enzyme activity>
2.35

$$$$
>  <MOLECULE>
c1ccc2c3c(ccc2c1)-c1cccc2cccc-3c12 [benzo[j]fluoranthene]

>  <CYP enzyme activity>
1.94

$$$$

Moving on to another molecule below.
Noted for c1ccc2c(c1)cc1ccc3cccc4ccc2c1c34 [benzo[a]pyrene] : its CYP enzyme activity reads 2.43

###

- ASSAYED_TARGET: CYP1A2 (UniProt P05177)
- Sequence (whole entry): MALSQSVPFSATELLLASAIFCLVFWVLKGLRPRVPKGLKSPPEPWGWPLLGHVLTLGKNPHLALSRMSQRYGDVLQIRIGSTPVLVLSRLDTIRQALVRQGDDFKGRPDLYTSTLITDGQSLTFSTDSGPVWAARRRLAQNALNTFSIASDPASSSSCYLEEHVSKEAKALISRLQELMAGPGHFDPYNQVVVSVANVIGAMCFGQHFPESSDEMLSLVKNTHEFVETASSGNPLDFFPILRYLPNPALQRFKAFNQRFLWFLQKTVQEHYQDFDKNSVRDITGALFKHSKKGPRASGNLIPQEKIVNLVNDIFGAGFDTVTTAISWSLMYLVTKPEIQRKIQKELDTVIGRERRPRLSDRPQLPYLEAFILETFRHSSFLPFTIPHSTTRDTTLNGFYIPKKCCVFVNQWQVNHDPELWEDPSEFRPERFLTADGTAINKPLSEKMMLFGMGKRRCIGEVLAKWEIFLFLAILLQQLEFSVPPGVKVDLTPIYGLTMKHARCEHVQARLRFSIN
- ASSAY_REMARKS: CYP enzyme activity (probe substrate metabolite formation) fold change vs solvent control; higher = stronger induction of CYP activity
- CONDITION_PARAMETERS: 1 µM; treatment time 12 h; HepaRG
Record condition met whenever CYP enzyme activity is at 2 or higher; record condition not met when lower.

Examples from the recorded data:
>  <MOLECULE>
c1ccc2c3c(ccc2c1)-c1cccc2cccc-3c12 [benzo[j]fluoranthene]

>  <CLASS_LABEL>
condition met

$$$$
>  <MOLECULE>
c1ccc2cc3c(ccc4ccccc43)cc2c1 [benzo[a]anthracene]

>  <CLASS_LABEL>
condition not met

$$$$
>  <MOLECULE>
c1ccc2cc3c(cc2c1)-c1cccc2cccc-3c12 [benzo[k]fluoranthene]

>  <CLASS_LABEL>
condition met

$$$$

Consider the record given below.
query: Quick check: does c1cc2ccc3cccc4ccc(c1)c2c34 have CYP enzyme activity greater than or equal to 2?
result: condition not met

###

- ASSAYED_TARGET: CYP1A2 (UniProt P05177)
- Sequence (whole entry): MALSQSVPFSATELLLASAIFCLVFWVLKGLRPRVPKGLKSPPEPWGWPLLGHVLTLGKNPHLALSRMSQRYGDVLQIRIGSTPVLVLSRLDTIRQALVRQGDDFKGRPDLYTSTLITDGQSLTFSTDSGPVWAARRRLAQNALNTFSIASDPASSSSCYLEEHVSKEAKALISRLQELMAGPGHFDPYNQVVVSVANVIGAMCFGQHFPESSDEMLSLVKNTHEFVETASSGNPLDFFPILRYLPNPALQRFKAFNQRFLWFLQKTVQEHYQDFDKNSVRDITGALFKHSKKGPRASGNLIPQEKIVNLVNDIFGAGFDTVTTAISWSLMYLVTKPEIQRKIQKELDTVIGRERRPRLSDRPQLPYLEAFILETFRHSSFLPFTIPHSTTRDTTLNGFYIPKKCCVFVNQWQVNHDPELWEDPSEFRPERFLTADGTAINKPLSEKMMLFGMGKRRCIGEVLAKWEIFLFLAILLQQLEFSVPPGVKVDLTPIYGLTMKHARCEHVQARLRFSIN
- ASSAY_REMARKS: CYP enzyme activity (probe substrate metabolite formation) fold change vs solvent control; higher = stronger induction of CYP activity
- CONDITION_PARAMETERS: 5 µM; treatment time 48 h; HepaRG
ENDPOINT_LABEL: CYP enzyme activity
Give the figure only, with no unit attached.

Some compounds with recorded CYP enzyme activity:
>  <COMPOUND>
c1cc2ccc3cccc4ccc(c1)c2c34

>  <QUANTITATIVE_READOUT>
1.28

$$$$
>  <COMPOUND>
c1ccc2c(c1)cc1ccc3cccc4ccc2c1c34 [benzo[a]pyrene]

>  <QUANTITATIVE_READOUT>
1.04

$$$$
>  <COMPOUND>
c1ccc2c(c1)-c1cccc3c1c-2cc1ccccc13 [benzo[b]fluoranthene]

>  <QUANTITATIVE_READOUT>
5.4

$$$$

Let us examine a further case.
// CYP enzyme activity lookup, compound = c1ccc2c3c(ccc2c1)-c1cccc2cccc-3c12 [benzo[j]fluoranthene] , result: 4.57
